Sourced from patent US20130251703A1

Target: human HER3 endogenously expressed on human cancer cells (SK-Br-3, BT-474, MCF7) (human, UniProt P21860 20-1342)
Assay: cell-based or functional assay
metric-name: BT474 pHER3 % inhibition
Provide the measurement as a number trailed by its unit.

In the examples that follow, each entry is paired with its recorded BT474 pHER3 % inhibition.
* MOR12603 (antibody, human IgG1, kappa, V domains shown, Tested as IgG) VH: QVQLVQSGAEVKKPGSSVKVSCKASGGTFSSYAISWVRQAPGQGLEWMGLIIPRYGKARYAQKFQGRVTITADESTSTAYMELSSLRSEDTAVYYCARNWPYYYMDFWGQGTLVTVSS VL: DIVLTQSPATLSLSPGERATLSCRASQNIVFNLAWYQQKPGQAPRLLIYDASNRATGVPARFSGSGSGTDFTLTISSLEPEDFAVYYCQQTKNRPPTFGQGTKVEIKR | 70%
* MOR12516 (antibody, human IgG1, lambda, V domains shown, Tested as IgG) VH: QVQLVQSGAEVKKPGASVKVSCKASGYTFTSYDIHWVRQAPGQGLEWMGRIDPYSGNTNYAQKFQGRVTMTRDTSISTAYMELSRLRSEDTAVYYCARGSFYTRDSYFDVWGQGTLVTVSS VL: DIALTQPASVSGSPGQSITISCTGTSSDVGTYNQVSWYQQHPGKAPKLMIYGVSKRPSGVSNRFSGSKSGNTASLTISGLQAEDEADYYCQSRDTYRPVKVFGGGTKLTVLG | 63%

For MOR13658 (antibody, human IgG1, lambda, V domains shown, Tested as IgG) VH: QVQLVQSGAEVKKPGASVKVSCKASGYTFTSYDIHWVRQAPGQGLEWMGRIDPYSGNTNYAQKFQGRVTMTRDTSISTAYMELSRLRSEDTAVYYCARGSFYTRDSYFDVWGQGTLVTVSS VL: DIALTQPASVSGSPGQSITISCTGTSSDVGTYNQVSWYQQHPGKAPKLMIYGVSKRPSGVSNRFSGSKSGNTASLTISGLQAEDEADYYCASADHSYHTVFGGGTKLTVLG , what is its reported BT474 pHER3 % inhibition? 67%
